Ref: patent US10144715B2

# testedSystem: LXR β LBD protein (Homo sapiens (Human), UniProt P55055)
# test: biochemical
# Type: binding
# conditionSet: read-out: LXRβ Binding Ki
# Sequence (P55055 222-460 limits assumed): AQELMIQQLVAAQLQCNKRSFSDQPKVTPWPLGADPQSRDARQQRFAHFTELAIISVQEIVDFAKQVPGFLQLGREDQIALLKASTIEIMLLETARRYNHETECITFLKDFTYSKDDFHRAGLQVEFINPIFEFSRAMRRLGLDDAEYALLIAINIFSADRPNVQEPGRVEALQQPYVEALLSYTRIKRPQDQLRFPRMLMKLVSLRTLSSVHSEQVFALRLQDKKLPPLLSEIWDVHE
# maps each entry to its pKi
Worth noting: pKi values are minus log10 of concentrations stated in mol/L.

# count of solved cases: 5
{"columns": ["molecule", "pKi"],
 "data": [
  ["CC(C)[C@@H]1CN(c2ccc(F)c(S(C)(=O)=O)c2)CCN1c1ncc(C(F)(F)F)c(C(C)(C)O)n1 [Cpd No 39-1]", 8.70],
  ["CCOC(=O)c1cnc(N2CCN(c3ccc(F)c(S(C)(=O)=O)c3)CC2CC(F)(F)F)nc1C (stereo not drawn) [7-22]", 7.77],
  ["Cc1csc(-c2ccc(N3CCN(c4ncc(CO)c(C(F)(F)F)n4)[C@H](C(C)C)C3)cc2S(C)(=O)=O)n1 [Cpd No 28-1]", 8.52],
  ["CC(C)[C@@H]1CN(c2ccc(F)c(S(N)(=O)=O)c2)CCN1c1ncc(CO)c(C(F)(F)F)n1 [11-2]", 7.46],
  ["CC(C)(O)[C@@H]1CN(c2cccc(S(C)(=O)=O)c2)CCN1c1nccc(C(F)(F)F)n1 [7-24]", 7.37]
]}

Input: So what does the record say about pKi for CS(=O)(=O)c1cccc(N2CCN(Cc3ccc(C(F)(F)F)c(Br)c3)C(c3ccccc3)C2)c1 (stereo not drawn) [46-37] ?
Output: 7.52

Input: Entry under review: CC(C)[C@@H]1CN(c2cccc(S(C)(=O)=O)c2)CCN1c1ncc(OC(F)F)cn1 [7-11] . Reported pKi?
Output: 7.11

Input: Fill in the blank: the reported pKi of CCN(CCOC)C(=O)c1cnc(N2CCN(c3ccc(F)c(S(C)(=O)=O)c3)C[C@H]2C(C)C)nc1C(F)(F)F [17-14] is ____.
Output: 6.95

----------
log10(Ki) values for the compounds below.
# testedSystem: LXR α LBD protein (Homo sapiens (Human))
# Sequence (Q13133 209-447): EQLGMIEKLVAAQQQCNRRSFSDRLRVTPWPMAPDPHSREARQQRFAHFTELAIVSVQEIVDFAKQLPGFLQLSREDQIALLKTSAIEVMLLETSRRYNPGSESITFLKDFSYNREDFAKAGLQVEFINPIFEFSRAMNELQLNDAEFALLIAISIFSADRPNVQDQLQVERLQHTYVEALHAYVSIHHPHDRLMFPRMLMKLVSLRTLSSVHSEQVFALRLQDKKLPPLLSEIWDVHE
# test: LXR α radioligand binding assay (SPA, competition with [3H]TO901317)
# conditionSet: read-out: LXRα Binding Ki
The figures below represent log10 of Ki, where Ki is stated in µM.

{"columns": ["compound", "log10(Ki)"],
 "data": [
  ["NS(=O)(=O)c1cccc(N2CCN(CC3CCN(CC(F)(F)F)CC3)[C@H](c3ccccc3)C2)c1 (single isomer, unassigned)", 0.87],
  ["CC(C)[C@@H]1CN(c2ccc(F)c(S(C)(=O)=O)c2)CCN1c1ncc(C(F)(F)F)c(C(N)=O)n1", 0.23],
  ["CC(C)[C@H]1CN(c2cccc(S(C)(=O)=O)c2)CCN1CC1CCC(C)(C)CC1", -1.09],
  ["CC(C)(O)[C@@H]1CN(c2cccc(S(C)(=O)=O)c2)CCN1c1nccc(C(F)(F)F)n1", 0.01]
]}

Input: Short answer please: log10(Ki), LXR α LBD protein (Homo sapiens (Human)), entry COC(=O)c1cnc(N2CCN(c3ccc(F)c(S(C)(=O)=O)c3)C[C@H]2C(C)C)nc1C(F)(F)F
Output: -1.02

Input: # value lookup — system LXR α LBD protein (Homo sapiens (Human)), readout log10(Ki), item CN(C)C(=O)c1cnc(N2CCN(c3ccc(F)c(S(C)(=O)=O)c3)C[C@H]2c2ccc(F)cc2)nc1C(F)(F)F
Output: 1.03

Input: Lab note: need log10(Ki) with LXR α LBD protein (Homo sapiens (Human)) for entry CC(C)[C@@H]1CN(c2cccc(S(C)(=O)=O)c2)CCN1c1ccc(C2CC2)nn1 , please look it up.
Output: 0.49

Input: log10(Ki) of CC(C)[C@@H]1CN(c2ccc(F)c(S(C)(=O)=O)c2)CCN1c1nc2ccc(C#N)cc2s1 on LXR α LBD protein (Homo sapiens (Human))?
Output: -0.26

Input: Reported log10(Ki) for LXR α LBD protein (Homo sapiens (Human)), given NS(=O)(=O)c1cccc(N2CCN(C[C@H]3CC[C@@H](C(F)F)CC3)[C@H](c3ccccc3)C2)c1 (single isomer, unassigned) ?
Output: 0.18

Input: Request body: readout log10(Ki), system LXR α LBD protein (Homo sapiens (Human)), query Cc1nc(N2CCN(c3ccc(F)c(S(C)(=O)=O)c3)C[C@H]2C(C)C)ncc1Br . Return the value.
Output: -1.00

Input: Form field: log10(Ki) recorded for CC(C)[C@@H]1CN(c2cc(S(C)(=O)=O)c(CO)cc2F)CCN1c1ncc(C(N)=O)c(C(F)(F)F)n1 with LXR α LBD protein (Homo sapiens (Human)) (enter value)
Output: 0.10

Input: Please provide the recorded log10(Ki) for CC(O)c1cnc(N2CCN(c3ccc(F)c(S(C)(=O)=O)c3)C[C@H]2c2ccc(F)cc2)nc1C(F)(F)F (stereo partly drawn) , tested on LXR α LBD protein (Homo sapiens (Human)).
Output: -0.05

Input: Query for LXR α LBD protein (Homo sapiens (Human)): what log10(Ki) does the record show for CC(C)[C@@H]1CN(c2ccc(CO)c(S(C)(=O)=O)c2)CCN1c1nc(C(F)(F)F)c(C(C)(C)O)o1 ?
Output: 0.07

----------
# testedSystem: Gal4 DNA binding domain fused to the LBD of LXRα in HEK293 cells (Homo sapiens (Human), UniProt Q13133)
# Sequence (Q13133 209-447): as above
# test: LXR luciferase transcriptional reporter gene assay, agonist mode, LXRα
# Assay type: cell-based
# conditionSet: read-out: Cell LXRα EC50
Reported log10 of EC50 values for a set of molecules
Hi team, quick reminder: these entries are log10 of EC50 (nM).

Use the examples below as a reference point.
{"columns": ["molecule", "log10 of EC50"],
 "data": [
  ["CC(C)[C@@H]1CN(c2ccc(C#N)c(S(C)(=O)=O)c2)CCN1c1ncc([C@@H](C)O)c(C(F)(F)F)n1 (single isomer, unassigned) [12-4]", 3.65],
  ["CC(C)[C@@H]1CN(c2cccc(S(C)(=O)=O)c2)CCN1c1ncc(C2CC2)cn1 [Cpd No 7-5]", 2.70],
  ["CC(C)[C@H]1CN(c2cccc(S(C)(=O)=O)c2)CCN1C[C@@H]1CC[C@@H](C(F)(F)F)OC1 (single isomer, unassigned) [Cpd No 49-7]", 2.72],
  ["CCOC(=O)c1cnc(N2CCN(c3ccc(-c4nc(C(N)=O)cs4)c(S(C)(=O)=O)c3)C[C@H]2C(C)C)nc1C(F)(F)F [9-14]", 3.48],
  ["CC(C)(O)CC1CN(c2ccc(F)c(S(C)(=O)=O)c2)CCN1c1ccc(C(F)(F)F)cn1 (stereo not shown) [34-1]", 3.39]
]}

Input: If you can, please state the reported log10 of EC50 value of CC(O)c1cnc(N2CCN(c3ccc(F)c(S(C)(=O)=O)c3)C[C@H]2C(C)C)nc1C(F)(F)F (mixture of isomers) [Cpd No 12-1] .
Output: 2.99

Input: If you can, please state the reported log10 of EC50 value of CS(=O)(=O)c1cccc(N2CCN(C[C@H]3CC[C@H](C(F)(F)F)CC3)[C@H](c3ccccc3)C2)c1 (single isomer, unassigned) [48-32] .
Output: 4.28

----------
# testedSystem: UniProtKB P55055
# test: biochemical
# Assay type: biochemical
# conditionSet: agonist mode; read-out: FRET LXRβ EC50
# Sequence (P55055 222-460): as the sequence (P55055 222-460 limits assumed) above
parameter: log10(EC50) (log10 of the value in nM)
Scale: log10; quantity: EC50; unit before log: nM

Example molecules with recorded log10(EC50):
{"columns": ["molecule", "testedSystem", "log10(EC50)"],
 "data": [
  ["CS(=O)(=O)c1cccc(N2CCN(Cc3ccc(C(F)(F)F)o3)[C@H](c3ccccc3)C2)c1 [46-65]", "UniProtKB P55055", 3.76],
  ["CS(=O)(=O)c1cc(N2CCN(C[C@H]3CC[C@@H](C(F)(F)F)CC3)[C@H](c3ccccc3)C2)ccc1C(N)=O (single isomer, unassigned) [17-38]", "UniProtKB P55055", 2.75],
  ["CC(C)[C@H]1CC[C@H](CN2CCN(c3cccc(S(C)(=O)=O)c3)C[C@H]2c2ccccc2)CC1 (single isomer, unassigned) [48-14]", "UniProtKB P55055", 4.09],
  ["CS(=O)(=O)c1cccc(N2CCN(Cc3ccc(C(F)(F)F)cn3)[C@@H](c3ccccc3)C2)c1 [46-64]", "UniProtKB P55055", 3.27],
  ["CS(=O)(=O)c1cc(N2CCN(C[C@H]3CC[C@@H](C(F)(F)F)CC3)[C@@H](c3ccccc3)C2)ccc1C(N)=O (single isomer, unassigned) [17-39]", "UniProtKB P55055", 1.80]
]}

Now for the molecule whose log10(EC50) we want.
Input: Checklist item: log10(EC50) tested on UniProtKB P55055, entry NS(=O)(=O)c1cccc(N2CCN(C[C@H]3CC[C@@H](C(F)(F)F)CC3)[C@@H](c3ccccc3)C2)c1 (single isomer, unassigned) [48-35] , value?
Output: 1.66
